assay details: Biodistribution, CHO-K1-GRPR + CHO-K1-PSMA dual xenograft mice
cond: female, NOD SCID, mouse, CHO-K1-GRPR tumor, intravenous, 2.69 nmol, total radioactivity, Biodistribution: CHO-K1-GRPR Tumor, Mouse #9; dual tracer; dual xenograft; 17.6 h p.i.; 2.69 nmol
measured metric: tissue uptake at 17.6 h (%ID/g)
Value expressed in %ID/g; do not type the unit.

Request: Respond only with tissue uptake at 17.6 h recorded for CC(C)C[C@H](NC(=O)C[C@H](O)[C@H](CC(C)C)NC(=O)[C@H](Cc1c[nH]cn1)NC(=O)CNC(=O)[C@@H](NC(=O)[C@H](C)NC(=O)[C@H](Cc1c[nH]c2ccccc12)NC(=O)[C@H](CCC(N)=O)NC(=O)[C@@H](Cc1ccccc1)NC(=O)CN1CCC(NC(=O)CN2CCN(CC(=O)O)CCN(CC(=O)O)CCN(CC(=O)O)CC2)CC1)C(C)C)C(N)=O [[^111In]In-RM2, metal not drawn]
Response: 0.26
